Biological target: T1, extracellular domain of human BLyS protein (hBLyS-ECD), His-tagged, Ala134-Leu285 (human, UniProt Q9Y275 134-285)
T1 construct: Expressed in HEK293 cells and purified on a Ni column; also called immunogen
T1 sequence (Q9Y275 134-285): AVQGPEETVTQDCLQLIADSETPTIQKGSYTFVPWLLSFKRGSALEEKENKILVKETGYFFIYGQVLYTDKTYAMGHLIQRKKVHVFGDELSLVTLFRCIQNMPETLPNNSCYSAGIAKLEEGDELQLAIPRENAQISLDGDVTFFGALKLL
Test: SPR (Biacore), antibody captured by anti-human Fc, hBLyS-ECD as analyte
Property: koff; scope: individual binders
// unit must come after the numeric part

binder: c89A2G5E7 (antibody, V domains shown) VH: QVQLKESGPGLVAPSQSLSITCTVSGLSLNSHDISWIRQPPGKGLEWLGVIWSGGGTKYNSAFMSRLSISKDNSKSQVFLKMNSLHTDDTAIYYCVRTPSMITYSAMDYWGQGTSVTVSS VL: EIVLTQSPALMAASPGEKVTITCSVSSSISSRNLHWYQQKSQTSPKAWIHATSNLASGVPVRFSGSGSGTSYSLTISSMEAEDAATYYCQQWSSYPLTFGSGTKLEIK
result: 1.82e-05 s⁻¹

Now consider a different binder.
The value of koff measured for the binder c111D10D6G3 (antibody, V domains shown) VH: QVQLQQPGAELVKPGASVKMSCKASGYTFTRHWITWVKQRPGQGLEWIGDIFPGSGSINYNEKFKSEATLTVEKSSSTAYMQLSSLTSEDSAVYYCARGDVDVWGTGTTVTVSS VL: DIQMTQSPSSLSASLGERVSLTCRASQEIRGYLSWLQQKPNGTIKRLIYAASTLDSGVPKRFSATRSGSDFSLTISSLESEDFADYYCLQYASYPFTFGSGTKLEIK turned out to be 2.98e-05 s⁻¹

Value source: patent US20210347873A1
